biological target: purified recombinant urease from H. pylori (Helicobacter pylori); construct: plasmid pGEM::ureOP, which encodes the entire urease gene cluster, was used to produce recombinant H. pylori urease; made in house; host or cells: E. coli Rosetta2 (DE3) + pGEM::ureOP; assay: Inhibition of purified recombinant H. pylori urease (phenol-hypochlorite, Lineweaver-Burk); format: biochemical; settings: 50 mM phosphate buffer pH 7.5, 37°C, 0.1–2.5 mM urea; competitive reversible inhibition; read-out: Ki
Sequence (B5Z674 whole entry, looked up): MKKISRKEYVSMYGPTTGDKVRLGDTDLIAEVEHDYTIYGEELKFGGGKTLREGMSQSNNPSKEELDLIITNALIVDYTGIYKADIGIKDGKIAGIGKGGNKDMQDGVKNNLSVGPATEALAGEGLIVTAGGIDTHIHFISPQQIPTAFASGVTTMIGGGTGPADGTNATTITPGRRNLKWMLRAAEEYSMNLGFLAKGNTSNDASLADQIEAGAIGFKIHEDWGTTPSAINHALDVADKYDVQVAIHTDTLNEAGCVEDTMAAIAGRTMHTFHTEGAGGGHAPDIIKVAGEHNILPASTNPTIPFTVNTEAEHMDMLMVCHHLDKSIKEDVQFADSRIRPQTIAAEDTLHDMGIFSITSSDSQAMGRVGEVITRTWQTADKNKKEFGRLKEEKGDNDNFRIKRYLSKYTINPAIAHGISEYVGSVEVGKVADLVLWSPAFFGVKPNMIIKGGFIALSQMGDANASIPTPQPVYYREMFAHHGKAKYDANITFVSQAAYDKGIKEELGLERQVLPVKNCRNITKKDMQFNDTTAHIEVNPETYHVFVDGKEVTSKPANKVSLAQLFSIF
measurement-kind: Ki (µM)
Answers are plain numbers, in µM.

INPUT: Look up Ki: CC(=O)NO [Compound 24, acetohydroxamic acid, reference compound]
OUTPUT: 23.2

====

target: urease in intact H. pylori J99 (Helicobacter pylori, UniProt P69997); construct: In the intact H. pylori J99 cells, the urease susceptibility profile was similar to that of E. coli (pGEM::ureOP); endogenous in cells; test: Urease inhibition in whole cells of H. pylori J99; format: cell-based; details: cells grown with urea; 2 h of preincubation with inhibitors in PBS under microaerobic conditions; read-out: IC502h PBS
Sequence (Q9ZMZ4 whole entry): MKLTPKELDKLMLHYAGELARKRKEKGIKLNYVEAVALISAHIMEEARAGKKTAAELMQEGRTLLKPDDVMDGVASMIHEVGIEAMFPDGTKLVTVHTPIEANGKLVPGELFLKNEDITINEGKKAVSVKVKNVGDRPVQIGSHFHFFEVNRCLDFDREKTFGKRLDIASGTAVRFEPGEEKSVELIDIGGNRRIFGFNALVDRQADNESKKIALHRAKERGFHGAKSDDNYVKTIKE
Sequence (P69997 whole entry): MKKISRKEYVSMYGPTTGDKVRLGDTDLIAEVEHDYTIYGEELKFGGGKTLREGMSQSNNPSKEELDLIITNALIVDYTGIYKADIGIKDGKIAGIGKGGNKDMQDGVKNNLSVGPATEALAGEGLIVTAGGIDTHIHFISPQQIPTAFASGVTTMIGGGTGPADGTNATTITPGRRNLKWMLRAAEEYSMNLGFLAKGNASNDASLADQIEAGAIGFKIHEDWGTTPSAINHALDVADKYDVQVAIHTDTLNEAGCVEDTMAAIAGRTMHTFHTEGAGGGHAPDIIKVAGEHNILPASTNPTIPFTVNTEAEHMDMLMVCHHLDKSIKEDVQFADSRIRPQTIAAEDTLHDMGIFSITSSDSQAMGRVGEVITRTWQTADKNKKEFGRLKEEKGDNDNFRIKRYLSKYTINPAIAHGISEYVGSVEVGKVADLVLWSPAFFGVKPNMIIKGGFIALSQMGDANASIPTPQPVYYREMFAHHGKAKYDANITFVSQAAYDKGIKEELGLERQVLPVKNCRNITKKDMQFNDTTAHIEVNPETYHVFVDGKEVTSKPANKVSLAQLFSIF
measurement-kind: pIC50
One number for each entry, as −log10 of the molar value.

A selection of reference data follows.
{"compound": "CNCP(=O)(O)CN", "measurement-target": "urease in intact H. pylori J99 (Helicobacter pylori, UniProt P69997)", "pIC50": 3.34}
{"compound": "CCCCCCCCNCP(=O)(O)CN", "measurement-target": "urease in intact H. pylori J99 (Helicobacter pylori, UniProt P69997)", "pIC50": 3.15}
{"compound": "CCCCCCNCP(=O)(O)CN", "measurement-target": "urease in intact H. pylori J99 (Helicobacter pylori, UniProt P69997)", "pIC50": 3.22}

For every record below, what is its pIC50?
1. CNCP(=O)(O)CNC
2. CC(=O)NO [Compound 24, acetohydroxamic acid, reference compound]
3. CN(C)CP(C)(=O)O
4. CCCCCCCNCP(=O)(O)CN
5. CNCP(=O)(O)CO
6. CNCP(=O)(O)O
7. CCCCCNCP(=O)(O)CN
8. CCCNCP(=O)(O)CN

OUTPUT:
1. 3.26
2. 2.87
3. 3.40
4. 3.17
5. 3.43
6. 3.46
7. 3.07
8. 3.03

====

molecular target: urease in intact H. pylori J99 (Helicobacter pylori, UniProt P69997); construct: In the intact H. pylori J99 cells, the urease susceptibility profile was similar to that of E. coli (pGEM::ureOP); endogenous in cells; assay: Urease inhibition in whole cells of H. pylori J99; format: cell-based; conditions: cells grown without urea; preincubated cells; read-out: IC50
pIC50: −log10 of the molar value.
measurement-kind: pIC50

INPUT: So what does the record say about pIC50 for CNCP(=O)(O)CN ?
OUTPUT: > 3.30

====

target: urease in intact H. pylori J99 (Helicobacter pylori, UniProt P69997); construct: In the intact H. pylori J99 cells, the urease susceptibility profile was similar to that of E. coli (pGEM::ureOP); endogenous in cells; test: Urease inhibition in whole cells of H. pylori J99; format: cell-based; settings: cells grown with urea; 2 h of preincubation with inhibitors in growth medium under microaerobic conditions; read-out: IC502h medium
Rule for this label: fulfilled means IC50 is less than 600 µM; not fulfilled means IC50 is at least 600 µM.

INPUT: Below 600 µM on IC50? Entry NCP(=O)(O)CN1CCCCC1
OUTPUT: not fulfilled

INPUT: Is IC50 of CCN(CC)CP(=O)(O)CN strictly below 600 µM?
OUTPUT: not fulfilled

INPUT: Please indicate whether the reported IC50 of CCCCCCCNCP(=O)(O)CN is strictly below 600 µM.
OUTPUT: fulfilled

INPUT: Bench note: check whether CNCP(=O)(O)CN shows IC50 below 600 µM
OUTPUT: fulfilled

INPUT: Here's an entry: CC(=O)NO [Compound 24, acetohydroxamic acid, reference compound] . Is its IC50 below 600 µM?
OUTPUT: fulfilled

INPUT: Say whether its IC50 is strictly beneath 600 µM. Entry: CCCCCCCCNCP(=O)(O)CN
OUTPUT: fulfilled

INPUT: IC50 strictly < 600 µM for this molecule? CNCP(=O)(O)CNC
OUTPUT: fulfilled

INPUT: Consider CCCCCNCP(=O)(O)CN . Does its IC50 lie strictly below 600 µM?
OUTPUT: not fulfilled

INPUT: API: query returns whether the molecule falls strictly under 600 µM in IC50. Query: NCP(=O)(O)CNCc1ccccc1
OUTPUT: not fulfilled

INPUT: Would you kindly verify if IC50 of CC(C)CNCP(=O)(O)CN is strictly less than 600 µM?
OUTPUT: not fulfilled
